# system: SpLsb1
# experimental_protocol: SPOT peptide array binding signal intensity (averaged, normalized) (arbitrary units (background-subtracted, floor 0; scale differs between SH3 domains)); higher = stronger binding of the SH3 domain to the peptide
endpoint: SPOT peptide array binding signal intensity
One number for each entry.

Below are some binders; for each one, tell me its SPOT peptide array binding signal intensity.
1. KRRAPPPVPKKPSSR
2. YLTRPLPSTPNEDSR
3. GKFIPSRPAPKPPSS
4. KMSRSPPRPPSLKII
5. VQQDSLPKLPFRSWG

Outgoing:
1780
1
98.8
9.75
3.5

Need SPOT peptide array binding signal intensity for each of these binders.
1. NRARYLPQNPDIIAG
2. APERAVPILPPRNNV
3. KLSRGRYGLPLSSRP

Outgoing:
1. 2
2. 83.8
3. 110
